target: human MC3R (Homo sapiens); experiment: Intracellular cAMP levels in live cells, MC3R agonist activity; settings: cAMP split-luciferase reporter cell line stably expressing human MC3R; direct agonist effect, measurement window 1
Sequence (P41968 whole entry): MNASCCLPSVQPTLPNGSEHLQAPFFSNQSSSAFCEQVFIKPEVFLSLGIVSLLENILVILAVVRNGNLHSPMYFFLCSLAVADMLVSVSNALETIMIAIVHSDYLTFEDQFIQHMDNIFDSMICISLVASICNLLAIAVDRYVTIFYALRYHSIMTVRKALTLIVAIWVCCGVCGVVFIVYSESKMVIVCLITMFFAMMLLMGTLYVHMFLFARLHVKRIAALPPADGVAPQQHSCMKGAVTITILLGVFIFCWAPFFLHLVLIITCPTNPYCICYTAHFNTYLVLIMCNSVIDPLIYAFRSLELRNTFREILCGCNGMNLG
Non-standard residues stand in square brackets, D forms with d. Residues, ends and D or L forms follow the SMILES beside them. Nle = CCCC[C@H](N)C(=O)O; Aib = CC(C)(N)C(=O)O
Readout name: pEC50
Note on pEC50: it is the negative log10 of concentration, concentration in mol/L.

Lab note: measured pEC50 of CCCC[C@H](NC(=O)[C@@H](NC(=O)[C@@H](N)Cc1ccc(O)cc1)C(C)C)C(=O)NC(C)(C)C(=O)N[C@@H](Cc1c[nH]cn1)C(=O)N[C@@H](Cc1ccccc1)C(=O)N[C@@H](CCCNC(=N)N)C(=O)N[C@H](Cc1c[nH]c2ccccc12)C(=O)N[C@@H](CC(=O)O)C(=O)N[C@@H](CCCNC(=N)N)C(=O)N[C@@H](Cc1ccccc1)C(=O)NCC(=O)O [CTX-1134] (H-YV[Nle][Aib]HFR[dW]DRFG-OH) was 8.60
